Each record here notes measured t1/2.
Target: T1, Human IL2Rγ extracellular domain expressed with a C-terminal myc-myc-hexahistidine tag (human)
T1 construct: also called hIL-2Rg-MMH; hIL-2RG-MMH
T1 chain: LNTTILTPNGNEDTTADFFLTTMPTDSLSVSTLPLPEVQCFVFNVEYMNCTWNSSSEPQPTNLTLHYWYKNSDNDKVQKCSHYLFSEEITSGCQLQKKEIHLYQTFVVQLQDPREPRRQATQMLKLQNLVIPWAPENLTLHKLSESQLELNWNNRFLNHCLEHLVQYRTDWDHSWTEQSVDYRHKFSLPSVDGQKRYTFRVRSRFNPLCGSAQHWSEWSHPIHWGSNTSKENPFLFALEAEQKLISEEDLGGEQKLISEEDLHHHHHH
Assay: SPR, captured mAb, 37C, dissociation pH 7.4
The reply should contain only the number, in min.

Below, 2 binders whose answers are already recorded.
| BINDER | OBSERVED VALUE |
| --- | --- |
| H4H13541P (antibody, human IgG4 S228P, kappa, V domains shown, anti-IL2Rgamma mAb expressed with human IgG4 Fc) VH: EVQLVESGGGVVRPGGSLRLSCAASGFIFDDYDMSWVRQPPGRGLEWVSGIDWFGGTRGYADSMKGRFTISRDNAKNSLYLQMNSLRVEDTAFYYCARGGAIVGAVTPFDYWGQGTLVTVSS VL: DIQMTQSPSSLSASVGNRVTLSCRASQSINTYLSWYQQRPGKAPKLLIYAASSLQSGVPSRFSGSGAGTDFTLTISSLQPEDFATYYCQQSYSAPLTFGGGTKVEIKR | 22 |
| H4H13538P (antibody, human IgG4 S228P, kappa, V domains shown, anti-IL2Rgamma mAb expressed with human IgG4 Fc) VH: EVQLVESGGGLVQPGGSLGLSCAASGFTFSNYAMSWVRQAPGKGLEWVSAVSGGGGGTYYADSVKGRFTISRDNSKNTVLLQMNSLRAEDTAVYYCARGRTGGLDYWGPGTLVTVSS VL: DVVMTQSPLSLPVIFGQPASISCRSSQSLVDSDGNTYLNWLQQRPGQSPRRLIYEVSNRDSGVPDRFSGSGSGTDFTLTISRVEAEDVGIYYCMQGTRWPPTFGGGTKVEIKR | 19 |

Please look at the following binder next.
Ask: Can you share its t1/2? I mean this binder: H4H12871P (antibody, human IgG4 S228P, kappa, V domains shown, anti-IL2Rgamma mAb expressed with human IgG4 Fc; also called REGN9434) VH: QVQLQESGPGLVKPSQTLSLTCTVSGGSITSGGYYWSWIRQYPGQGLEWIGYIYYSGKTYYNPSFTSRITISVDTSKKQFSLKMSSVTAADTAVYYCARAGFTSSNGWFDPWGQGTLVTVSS VL: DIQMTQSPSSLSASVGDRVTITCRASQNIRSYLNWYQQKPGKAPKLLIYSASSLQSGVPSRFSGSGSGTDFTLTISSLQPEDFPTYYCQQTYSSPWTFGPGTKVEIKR
Reply: 10
